Record form. Attribute: growth. Fill in for each entry.
- System: MDA-MB-468 breast
- Protocol Summary: NCI-60 one-dose screen, 48 h (100 = growth as untreated, 0 = no growth, -100 = all killed)
- Details: 10 µM unless noted
Compounds without any hit were thinned out: in the full panel of roughly 83,000, 20% have a hit.
Supply the numeric figure in %, leaving out any unit text.

Value of measured growth for the entry "COc1ccc(/C=C2/CN(C(=O)c3ccc(C)cc3)C/C(=C\c3ccc(OC)cc3)C2=O)cc1" : 74.1

Value of measured growth for the entry Cc1ccccc1N=C(N)Nc1ccccc1C (tested in a mixture with another compound) : 87.1

Please fill in: growth reported for "CNC(=O)c1cn2c3c(c(N4CCN(C)CC4)c(F)cc3c1=O)OC[C@@H]2C" = 97.7

Sure, the documented growth for "O=C(Nc1ccc(-n2ccc3c(NC(=O)c4ccccc4)ncnc32)cc1)Nc1ccc(Cl)c(Cl)c1" is -36.7

For reference, reported growth for "Cc1onc(-c2ccccc2)c1C(=O)N/N=C/c1cc(Cl)cc(Cl)c1O" stands at 24.7

For record "CCCn1c(=O)c2c(nc(-c3cccc(OCCCCl)c3)n2C)n(CCC)c1=O" the listed growth is 23.6

"CCN1C(=O)c2ccc3c4c(ccc(c24)C1=O)C(=O)N(CCCNCc1ccccc1OC)C3=O" has a reported growth of -71.4

Briefly, growth measured for CCOC(=O)C1=C(c2ccccc2)N=C2N(c3ccccc3)N=C(C(C)=O)N2C1c1ccc(Br)cc1 (centres undefined) : 99.3

Value of growth reported for the compound "COc1ccc(-c2cc3ccc(N(C)C)cc3nc2N)c(F)c1" is 4.96
